biological target: Carbonic anhydrase 1 (Homo sapiens)
measurementName: Kis (nM)

a. CC(=O)O[C@H]1[C@H](OC(C)=O)[C@H](OC(C)=O)CO[C@H]1n1nncc1-c1ccc(S(N)(=O)=O)cc1
b. NS(=O)(=O)c1ccc(-c2cnnn2[C@@H]2O[C@H](CO)[C@@H](O[C@H]3O[C@H](CO)[C@@H](O)[C@H](O)[C@H]3O)[C@H](O)[C@H]2O)cc1
c. NS(=O)(=O)c1ccc(-c2cnnn2[C@@H]2OC[C@@H](O)[C@@H](O)[C@@H]2O)cc1
[Q] List the items above again, this time ordered by increasing Kis. I would appreciate it if you listed the labels in the requested order.
[A] b, c, a
